The reported numbers originate from patent US4265906A.

Hi there, I'd appreciate the recorded LD50 at 24 h for every entry that follows.
Assay: Oral toxicity test (Test Example 10)
Details: in vivo, male mouse, corn oil
Method: The present compound (1) was dissolved or suspended in a corn oil, and the resulting solution was orally administered to a male mouse (18 to 22 g) at a rate of 0.2 ml/10 g body weight. After 24 hours, the mortality was examined to obtain the median lethal dose (LD50 mg/kg).
Numbers only, in mg/kg.

molecule	LD50 at 24 h / mg/kg
CC1(C)C(C=C(Cl)Cl)C1C(=O)OC(C#N)c1cccc(Oc2ccccc2)c1 (racemic) [Reference compound (D)]	112

Could I get LD50 at 24 h for every one of these entries?
1. CC1(C)C(C=C(Cl)Cl)C1C(=O)OC(C#N)c1cccc(Oc2ccc(F)cc2)c1 (racemic) [(E)]
2. CNC(=O)Oc1ccc(C)c(C)c1
3. CC1(C)C(C=C(Cl)Cl)C1C(=O)OCc1cccc(Oc2ccccc2)c1 (racemic)

300
60
650
